Test system: CCRIS mutagenicity, Ames/micronucleus/aberration tests
Assay: CCRIS mutagenicity studies
Details: Test System: AMES SALMONELLA TYPHIMURIUM; Strain/Indicator: TA100; Metabolic Activation: RAT, LIVER, S-9, AROCLOR 1254 (30%); Method: PREINCUBATION
Activity calls are given as the source filed them. No rule for the calls is given here.
Valid outcomes are listed here; reply with one: TRUE for active, FALSE for inactive

Sample answers from the record:
COc1ccc(C(=O)c2ccccc2)c(O)c1 : FALSE
O=c1[nH][nH]c(=O)c2cc([N+](=O)[O-])ccc12 : FALSE
O=C1c2ccccc2C(=O)C1c1ccc2ccccc2n1 : TRUE

(Q) Dear all, I need the recorded test outcome for CC=C(C)C#N , thank you.
(A) FALSE

(Q) Dear all, I need the recorded test outcome for CC(C)(O)C#N , thank you.
(A) FALSE

(Q) Dear all, I need the recorded test outcome for CC(CN1c2ccccc2Sc2ccccc21)N(C)C (stereo unspecified) , thank you.
(A) FALSE

(Q) Dear all, I need the recorded test outcome for O=[N+]([O-])c1cc([N+](=O)[O-])c2ccccc2c1 , thank you.
(A) TRUE

(Q) Dear all, I need the recorded test outcome for CCC(C)(C)c1ccc(O)cc1 , thank you.
(A) FALSE

(Q) Dear all, I need the recorded test outcome for c1ccc2cc3c(cc2c1)-c1cccc2cccc-3c12 , thank you.
(A) TRUE

(Q) Dear all, I need the recorded test outcome for CCCCC(CC)CN (stereo unspecified) , thank you.
(A) FALSE
